// provenance: the RNAGym collection of RNA variant scans (doi:10.7554/elife.90254)

Measured self-cleavage values are reported for all entries that follow.
B1: LINE1-full (parent)
chain: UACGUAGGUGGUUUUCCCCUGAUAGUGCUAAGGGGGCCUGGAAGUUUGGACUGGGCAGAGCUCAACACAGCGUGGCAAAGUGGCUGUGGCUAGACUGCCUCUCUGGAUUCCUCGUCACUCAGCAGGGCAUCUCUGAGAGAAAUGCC

variants of: B1; assay: self-cleavage, relative activity (ratio to wild type); higher = more cleavage; in vitro, sequencing; the parent is a self-cleaving ribozyme

{"columns": ["mutation label", "self-cleavage"],
 "data": [
  ["U29A A117U", 1.06],
  ["C84G U100C", 0.07],
  ["C19U U87C", 0.06],
  ["U96G A142G", 0.17],
  ["A50G C51U", 0.62],
  ["U46G U112A", 1.47],
  ["U96C U115A", 0.13],
  ["G53A C61U", 0.03],
  ["U12G U119C", 1.34],
  ["A65C U143C", 0.06],
  ["A77U U104A", 0.58],
  ["A77U A117C", 1.76],
  ["G53U A64U", 0.45],
  ["A24U U104C", 1.25],
  ["U47A U73A", 1.11],
  ["A2G C90U", 0.15],
  ["A78U G89A", 0.07],
  ["C84G A94U", 0.13],
  ["U47C C128U", 1.42],
  ["U20A U85G", 0.1],
  ["A117U A138U", 1.16],
  ["A78U C110U", 1.28],
  ["C76G U102C", 2.25],
  ["U12C A138G", 1.37],
  ["U39A U119A", 1.46],
  ["A77U A129G", 1.45],
  ["G60U A64U", 0.05],
  ["C38U A141G", 0.84],
  ["C68U G122U", 0.21],
  ["U1A A141G", 1.43],
  ["U46C G93A", 0.07],
  ["U96C C113A", 0.05],
  ["A30U U104A", 1.93],
  ["A43G C118U", 1.19],
  ["U85C A92G", 0.28],
  ["U9A A57U", 0.19],
  ["A24G U73C", 1.68]
]}
